Quick record: cytotoxic activity across the cell line panel (in words), panel of cell lines.
measurement type: cytotoxic activity across the cell line panel (in words)

molecule: COc1cc2c(c(OC)c1OC)-c1ccc(OC)c(=O)cc1[C@@H](NC(=O)CCCC[N+](C)(C)CCCCC1=C3C(C)=CC(C)=[N+]3[B-](F)(F)n3c(C)cc(C)c31)CC2 [CB3]
result: significantly lower

molecule: COc1cc(C2=C3C(C)=CC(C)=[N+]3[B-](F)(F)n3c(C)cc(C)c32)ccc1OCc1cn([C@H]2CCc3cc(OC)c(OC)c(OC)c3-c3ccc(OC)c(=O)cc32)nn1 [CB6]
result: changed only slightly

molecule: COc1cc2c(c(OC)c1OC)-c1ccc(NCCCCC3=C4C(C)=CC(C)=[N+]4[B-](F)(F)n4c(C)cc(C)c43)c(=O)cc1[C@@H](NC(C)=O)CC2 [CB10]
result: significantly lower

molecule: COc1cc2c(c(OC)c1OC)-c1ccc(OC)c(=O)cc1[C@@H](n1cc(CCCC3=C4C(C)=CC(C)=[N+]4[B-](F)(F)n4c(C)cc(C)c43)nn1)CC2 [CB4]
result: changed only slightly
